# Tested on: Rattus norvegicus
# MEASUREMENT_DESCRIPTION: In vivo Sterol lowering activity at dose as 0.03 % of the diet.
# Assay type: functional
Each entry below lists one item and its recorded serum sterol level, percent of control value.
Only the number, expressed in %, is required.

Sample answers from the record:
O=C(/C=C/c1ccc(Cl)cc1)Nc1ccc(C(=O)O)cc1 | 100
CCOC(=O)c1ccc(NC(=O)CCc2ccc(OC)cc2)cc1 | 85
CCOC(=O)Cc1ccc(NCCCc2ccc(Cl)cc2)cc1 | 91
CCOC(=O)c1ccc(NC(=O)CCCCC(=O)c2ccc(Cl)cc2)cc1 | 88

We now examine a further compound.
The compound listed as CCOC(=O)c1ccc(NCCc2ccc(Cl)cc2)cc1 shows serum sterol level, percent of control equal to 113

====

# Tested on: Rattus norvegicus
# MEASUREMENT_DESCRIPTION: In vivo triglyceride lowering activity, dosed at 0.03 % of the diet
# Format: functional
Decision: serum triglycerides, percent of control beneath 60% gives True; serum triglycerides, percent of control meeting or exceeding 60% gives False.

Consider the worked cases shown below.
O=C(O)c1ccc(NCCCCCCc2cccs2)cc1 | False
O=C(O)c1ccc(NCCCCCCCCCC/C=C/c2cccs2)cc1 | True

input: Identify whether the compound CCCCCCCCCCCCCCCCNc1ccc(C(=O)O)cc1 records serum triglycerides, percent of control below 60%.
output: True

====

Each entry below lists one item and its recorded serum sterol level, percent of control value.
# System: Rattus norvegicus
# MEASUREMENT_DESCRIPTION: In vivo Sterol lowering activity at dose as 0.03 % of the diet.
# Format: functional
Only the number, expressed in %, is required.

Sample answers from the record:
O=C(O)c1ccc(C(=O)O)c(NCCCc2ccc(Cl)cc2)c1 | 100
Nc1ccccc1CCCNc1ccc(C(=O)O)cc1 | 96
CCOC(=O)c1ccc(NC(=O)CCCCCc2ccc(Cl)cc2)cc1 | 101

We now examine a further compound.
The compound listed as O=C(O)c1ccc(NCCCc2ccc(Cl)cc2)cc1 shows serum sterol level, percent of control equal to 94

====

# Tested on: Rattus norvegicus
# MEASUREMENT_DESCRIPTION: In vivo triglyceride lowering activity dosed at 0.05 % of the diet
# Format: functional
ASSAY_READOUT: Diet

O=C(O)c1ccc(NCc2ccccc2)cc1 | 62%
CCOC(=O)c1ccc(NCCCc2ccc(OCc3ccccc3)cc2)cc1 | 46%
CCOC(=O)c1ccc(NCCCCCCCc2ccccc2)cc1 | <82%
CCCCCCCCC/C=C/CCCNc1ccc(C(=O)O)cc1 | 97%
O=C(O)c1ccc(NCCCCCCCc2ccccc2)cc1 | <61%
CCCCCCCCNc1ccc(C(=O)O)cc1 | 88%
CCCCCCCOc1ccc(CNc2ccc(C(=O)OCC)cc2)cc1 | <76%
CCCCCCCC/C=C\CCCCCCCCNc1ccc(C(=O)OCC)cc1 | <57%

# CCCCCCCCCCCCCOc1ccc(CNc2ccc(C(=O)O)cc2)cc1 with Rattus norvegicus: Diet is <65%

# C=CCCCCCCCC/C=C/CCCNc1ccc(C(=O)OCC)cc1 with Rattus norvegicus: Diet is 76%

# CCCCCCCCCCc1ccc(CNc2ccc(C(=O)O)cc2)cc1 with Rattus norvegicus: Diet is 113%

# O=C(O)c1ccc(NCCc2ccc(F)cc2)cc1 with Rattus norvegicus: Diet is 50%

====

# System: Rattus norvegicus
# MEASUREMENT_DESCRIPTION: In vivo triglyceride lowering activity dosed at 0.05 % of the diet
# Assay type: functional
Each entry below lists one item and its recorded Diet value.
Only the number, expressed in %, is required.

C=CCCCCCCCC/C=C/CCCNc1ccc(C(=O)O)cc1 | 79
CCOC(=O)c1ccc(NCCCCCc2ccccc2)cc1 | 66

The compound listed as O=C(O)c1ccc(NCCc2cccc3ccccc23)cc1 shows Diet equal to 67

The compound listed as O=C(O)c1ccc(NCCCCCCc2ccccc2)cc1 shows Diet equal to 46

The compound listed as CCCCCCCCCCCCCCCCCNc1ccc(C(=O)O)cc1 shows Diet equal to 77

====

# Tested on: Rattus norvegicus
# MEASUREMENT_DESCRIPTION: In vivo triglyceride lowering activity dosed at 0.05 % of the diet
# Assay type: functional
Decision: Diet beneath 60% gives Met; Diet meeting or exceeding 60% gives Not met.

Consider the worked cases shown below.
O=C(O)c1ccc(NCc2ccc(OCc3ccccc3)cc2)cc1 | Not met
CCCCCCCCCCOc1ccc(CNc2ccc(C(=O)O)cc2)cc1 | Met

input: Identify whether the molecule CCOC(=O)c1ccc(NC/C=C/c2ccccc2)cc1 records Diet below 60%.
output: Met

input: Identify whether the molecule CCCCCCCCCC/C=C/CCCNc1ccc(C(=O)OCC)cc1 records Diet below 60%.
output: Not met

input: Identify whether the molecule CCCCCCCCCCCCCCCNc1ccc(C(=O)O)cc1 records Diet below 60%.
output: Not met

input: Identify whether the molecule CCOC(=O)c1ccc(NCCCc2ccccc2)cc1 records Diet below 60%.
output: Met

====

# Test system: Rattus norvegicus
# MEASUREMENT_DESCRIPTION: In vivo triglyceride lowering activity dosed at 0.05 % of the diet
# Assay type: functional
Each entry below lists one item and its recorded Diet value.
Only the number, expressed in %, is required.

The molecule listed as C=CCCCCCCCC/C=C/CCCNc1ccc(C(=O)[O-])cc1.[Na+] shows Diet equal to 90

The molecule listed as O=C(O)c1ccc(NCCCc2ccc(OCc3ccccc3)cc2)cc1 shows Diet equal to 69

The molecule listed as CCOC(=O)c1ccc(NCCCCCCc2ccccc2)cc1 shows Diet equal to 45

====

Each entry below lists one item and its recorded inhibition value.
# EXPERIMENTAL_SYSTEM: Sterol O-acyltransferase 1 (Rattus norvegicus) (UniProt O70536)
# MEASUREMENT_DESCRIPTION: In vitro inhibitory activity against acyl coenzyme A:cholesterol acyltransferase (ACAT)
# Parameters: concentration or dose not given beside the values
# REPORTED_CONDITIONS: concentration not given here
Only the number, expressed in %, is required.

CCOC(=O)c1ccc(NCCCc2ccccc2)cc1 | 61
CCOC(=O)c1ccc(NCCCCCC(=O)c2ccc(Cl)cc2)cc1 | 50
O=C(O)c1ccc(NCCCc2ccc(OCc3ccccc3)cc2)cc1 | 2

We now examine a further molecule.
The molecule listed as CCOC(=O)c1ccc(NCCCCc2cccs2)cc1 shows inhibition equal to 56

====

# EXPERIMENTAL_SYSTEM: Sterol O-acyltransferase 1 (Rattus norvegicus) (UniProt O70536)
# Sequence (whole entry): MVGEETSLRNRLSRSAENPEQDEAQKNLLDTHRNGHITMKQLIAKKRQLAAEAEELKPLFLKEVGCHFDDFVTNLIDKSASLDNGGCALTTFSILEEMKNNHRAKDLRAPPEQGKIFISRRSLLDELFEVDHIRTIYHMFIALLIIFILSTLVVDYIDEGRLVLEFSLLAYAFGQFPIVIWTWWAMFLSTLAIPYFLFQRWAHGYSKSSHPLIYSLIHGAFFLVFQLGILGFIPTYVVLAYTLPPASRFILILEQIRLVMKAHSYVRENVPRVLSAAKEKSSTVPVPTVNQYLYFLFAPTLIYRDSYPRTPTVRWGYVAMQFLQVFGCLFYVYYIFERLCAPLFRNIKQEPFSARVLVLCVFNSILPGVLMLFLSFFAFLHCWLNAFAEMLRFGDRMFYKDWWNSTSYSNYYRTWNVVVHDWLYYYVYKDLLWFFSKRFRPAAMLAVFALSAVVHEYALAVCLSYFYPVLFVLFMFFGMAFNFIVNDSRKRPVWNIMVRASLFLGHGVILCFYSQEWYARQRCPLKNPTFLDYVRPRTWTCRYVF
# MEASUREMENT_DESCRIPTION: In vitro inhibitory activity against acyl coenzyme A:cholesterol acyltransferase (ACAT)
# Parameters: concentration or dose not given beside the values
# REPORTED_CONDITIONS: concentration not given here
Classification by inhibition follows these ranges: low = under 10%, middle = from 10% up to 40%, high = 40% and over

Consider the worked cases shown below.
CCN(CCCc1ccc(Cl)cc1)c1ccc(C(=O)O)cc1 | high
Cc1ccc(CCC(=O)Nc2ccc(C(=O)O)cc2)cc1 | low
CCOC(=O)c1ccc(NCCCc2ccccc2F)cc1 | middle
CCOC(=O)c1ccc(NCCc2ccc(Cl)cc2)cc1 | middle
O=C(O)c1ccc(NCCCCCCCc2ccccc2)cc1 | middle

input: Lab note: sort CCCCCCCCCCCc1nc(CNc2ccc(C(=O)O)cc2)c[nH]1.Cl into the matching inhibition band.
output: middle

input: Lab note: sort CCOC(=O)c1ccc(N(C)CCCc2ccc(Cl)cc2)cc1 into the matching inhibition band.
output: high

input: Lab note: sort CCOC(=O)c1ccc(NCc2ccc(OCc3ccccc3)cc2)cc1 into the matching inhibition band.
output: high

input: Lab note: sort O=C(O)c1ccc(NCCCc2ccccc2[N+](=O)[O-])cc1 into the matching inhibition band.
output: low

input: Lab note: sort O=C(O)c1ccc(NCc2ccccc2)cc1 into the matching inhibition band.
output: low

input: Lab note: sort CCOC(=O)c1ccc(NCCCc2cccc(Br)c2)cc1 into the matching inhibition band.
output: high
